Biological target: human recombinant AChE (Homo sapiens, UniProt P22303)
Sequence (P22303 32-614): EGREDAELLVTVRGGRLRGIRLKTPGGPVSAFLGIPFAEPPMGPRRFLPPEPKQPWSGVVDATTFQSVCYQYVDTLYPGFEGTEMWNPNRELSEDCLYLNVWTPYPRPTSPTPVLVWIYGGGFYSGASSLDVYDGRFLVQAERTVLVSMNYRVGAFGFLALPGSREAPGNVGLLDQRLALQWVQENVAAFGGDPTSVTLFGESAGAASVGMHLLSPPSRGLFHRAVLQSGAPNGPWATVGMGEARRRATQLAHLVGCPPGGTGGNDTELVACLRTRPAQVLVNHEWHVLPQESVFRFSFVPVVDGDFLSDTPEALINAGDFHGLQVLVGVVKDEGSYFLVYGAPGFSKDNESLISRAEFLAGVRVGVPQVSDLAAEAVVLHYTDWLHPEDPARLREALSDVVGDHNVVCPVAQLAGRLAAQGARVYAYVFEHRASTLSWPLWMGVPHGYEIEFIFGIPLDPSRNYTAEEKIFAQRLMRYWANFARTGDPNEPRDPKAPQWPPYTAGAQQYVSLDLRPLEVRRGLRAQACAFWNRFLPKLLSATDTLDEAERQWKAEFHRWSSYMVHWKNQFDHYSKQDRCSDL
Conditions: read-out: hAChE half-maximal inhibitory concentration; mean ± SD of three independent measurements; unit from b17 (low μM range)
Protocol: Herein, a number of newly and previously synthesized 3-benzazecine analogs, including either allene (Figure 1, scaffold A) or 6- and 8-ylidene (B and C) derivatives, were firstly assayed as inhibitors of AChE, BChE, and MAOs at 10 μM concentration. Inhibition of human recombinant AChE (2770 U/mg) or BChE from human serum (50 U/mg) was determined as described using the Ellman spectrophotometric method in a 96-well plate procedure. […]
observation-type: IC50 (µM)
One number for each entry, in µM.

COCC1=C=C(c2ccc(C)cc2)c2cc(OC)c(OC)cc2CCN(C)C=C1C(C)=O: 32.5
COCC1=C=C(c2ccc(OC)cc2)c2cc(OC)c(OC)cc2CCN(C)C=C1C(=O)OC: 12.2

For each of the items listed, what is its IC50?
1. COCC1=C=C(c2ccc(C)cc2)c2cc(OC)c(OC)cc2CCN(C)C=C1C(=O)OC
2. COCC1=C=C(c2ccc(OC)cc2)c2cc(OC)c(OC)cc2CCN(C)C=C1C(C)=O

*A*
1. 19.3
2. 13.2
